# target: hGSTM1-1 (Homo sapiens)
# Sequence (P09488 whole entry): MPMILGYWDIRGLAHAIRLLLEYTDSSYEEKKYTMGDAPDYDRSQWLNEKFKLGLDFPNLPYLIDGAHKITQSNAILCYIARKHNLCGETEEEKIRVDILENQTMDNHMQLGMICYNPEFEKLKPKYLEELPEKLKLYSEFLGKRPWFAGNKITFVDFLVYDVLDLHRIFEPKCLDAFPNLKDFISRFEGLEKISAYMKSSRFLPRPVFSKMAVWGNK
# procedure-summary: biochemical
# Parameters: made in house; host or cells: E. coli
# recorded-conditions: 25 μM pesticide; CDNB (1 mM)-GSH (2.5 mM) assay; mean of three assays, variation less than 5%; read-out: Inhibition (%)
Provide the reported inhibition at 25 µM of each item.
Entry format: amount then unit.

Worked examples follow.
compound: CCOCN(C(=O)CCl)c1c(C)cccc1CC
target: hGSTM1-1 (Homo sapiens)
inhibition at 25 µM: 13.8%
//
compound: CNC(=O)Oc1cccc2c1OC(C)(C)C2
target: hGSTM1-1 (Homo sapiens)
inhibition at 25 µM: 0%
//
compound: O=C(NC(=O)c1c(F)cccc1F)Nc1ccc(Cl)cc1
target: hGSTM1-1 (Homo sapiens)
inhibition at 25 µM: 0%
//
compound: CC(C)C(C(=O)OC(C#N)c1cccc(Oc2ccccc2)c1)c1ccc(Cl)cc1 (stereo not drawn) [Fenvalerate]
target: hGSTM1-1 (Homo sapiens)
inhibition at 25 µM: 0%
//
compound: CCOC(=O)CC(SP(=S)(OC)OC)C(=O)OCC (stereo not drawn)
target: hGSTM1-1 (Homo sapiens)
inhibition at 25 µM: 12.7%

Give inhibition at 25 µM for each of the items listed below.
1. Cc1cc(C)nc(Nc2ccccc2)n1
2. CC1(C)[C@H](C(=O)O[C@H](C#N)c2cccc(Oc3ccccc3)c2)[C@@H]1C=C(Br)Br
3. CCNc1nc(Cl)nc(NC(C)C)n1
4. O=S1OCC2C(CO1)C1(Cl)C(Cl)=C(Cl)C2(Cl)C1(Cl)Cl (stereo not drawn) [Endosulfan]

## Result
7.49%
0%
28.7%
14.7%

Respectfully, I request inhibition at 25 µM for each entry included below.
1. CN(C)C(=O)Nc1ccc(Cl)c(Cl)c1
2. C=CC1(C)OC(=O)N(c2cc(Cl)cc(Cl)c2)C1=O (stereo not drawn)
3. O=[N+]([O-])c1ccc(Oc2ccc(C(F)(F)F)cc2[N+](=O)[O-])cc1
4. O=[N+]([O-])NC1=NCCN1Cc1ccc(Cl)nc1

## Result
1. 15%
2. 14.3%
3. 16.7%
4. 0%
